Target: T1, γHV68 M11 residues 1-136 (murine γHV68), P89884
T1 chain: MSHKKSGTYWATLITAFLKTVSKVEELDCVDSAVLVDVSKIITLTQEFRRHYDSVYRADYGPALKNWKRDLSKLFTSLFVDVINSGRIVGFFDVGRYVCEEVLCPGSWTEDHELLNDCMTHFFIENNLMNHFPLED
Assay: ITC (Table 4; quantity and unit in Table 1)
pKd: −log10 of the molar value.
Please enter yes (1) where pKd is greater than or equal to 5, and no (0) where it is lower.

Is it the case that GSGTMENLSRRAKVTGDLFDIMSGQT (modifications not checked) [Beclin 1 BH3D-derived peptide L116A] has pKd reaching or exceeding 5? no (0)

Next binder up: GSGTMENLSRRLKVTGDLADIMSGQT (modifications not checked) [Beclin 1 BH3D-derived peptide F123A] yes (1)

Next binder up: GSGTMENASRRLKVTGDLFDIMSGQT (modifications not checked) [Beclin 1 BH3D-derived peptide L112A] yes (1)

Next binder up: GSGTMENLSRRLKVTEDLFDIMSGQT (modifications not checked) [Beclin 1 BH3D-derived peptide G120E] no (0)

Next binder up: GSGTMENLSRRLKVTEALFDIMSGQT (modifications not checked) [Beclin 1 BH3D-derived G120E+D121A double mutant peptide] yes (1)

Next binder up: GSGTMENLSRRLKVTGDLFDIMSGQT (modifications not checked) [Beclin 1 BH3D peptide, wild type] yes (1)

Next binder up: GSGTMENLSRRLKVTGALFDIMSGQT (modifications not checked) [Beclin 1 BH3D-derived peptide D121A] yes (1)

Next binder up: GSGTMENLSRRLAVTGDLFDIMSGQT (modifications not checked) [Beclin 1 BH3D-derived peptide K117A] yes (1)
